Reported melting point by item:

Worked set:
Nc1nc(-c2ccccc2)c(-c2ccc(=O)[nH]n2)s1; > 250 °C
CC(C)n1nc(-c2sc(NC(=O)CNCCCO)nc2-c2ccccc2)ccc1=O.Cl; 136 to 142 °C
CC(C)n1nc(-c2sc(NC=O)nc2-c2ccc(F)cc2)ccc1=O; 230 to 231 °C
CNc1nc(-c2ccccc2)c(-c2ccc(=O)n(C(C)C)n2)s1; 234 to 236 °C
CC(C)n1nc(-c2sc(NC(=O)N3CCOCC3)nc2-c2ccccc2)ccc1=O; 231 to 232 °C

// query Sample CC(C)n1nc(-c2sc(NC(=O)c3c(Cl)cccc3Cl)nc2-c2ccccc2)ccc1=O — what was its melting point?
// result 248 to 249 °C

// query melting point value for entry CC(C)n1nc(-c2sc(C(N)=O)nc2-c2cccc(Cl)c2)ccc1=O
// result 232 to 234.5 °C

// query What melting point value was documented for this compound, CC(C)n1nc(-c2sc(NC(=O)C3CCCCC3)nc2-c2ccccc2)ccc1=O ?
// result 234 to 236 °C

// query Reported melting point for CC(C)n1nc(-c2sc(NC(=O)c3ccccc3)nc2-c2ccc(F)cc2)ccc1=O [Example 83] : what is it?
// result 202 to 203.5 °C

// query # lookup: melting point of CCn1nc(-c2sc(C(=O)NCc3ccccn3)nc2-c2ccccc2)ccc1=O
// result 169 to 170.5 °C

// query What value of melting point has been reported for the following compound? CC(C)n1nc(-c2sc(NC(=O)c3cccc(F)c3)nc2-c2ccccc2)ccc1=O
// result 183 to 184 °C

// query Which value of melting point has been reported for CC(C)n1nc(-c2sc(C(=O)NC3CCCCC3)nc2-c2ccccc2)ccc1=O in the records?
// result 225 to 226 °C

// query I would be grateful if you could share the reported melting point for CC(C)NC(=O)c1nc(-c2cccc(F)c2)c(-c2ccc(=O)n(C(C)C)n2)s1 .
// result 103.5 to 105.5 °C

meta.source: patent US20050004134A1
